Molecular target: Aromatase (Homo sapiens)
Sequence (P11511 whole entry): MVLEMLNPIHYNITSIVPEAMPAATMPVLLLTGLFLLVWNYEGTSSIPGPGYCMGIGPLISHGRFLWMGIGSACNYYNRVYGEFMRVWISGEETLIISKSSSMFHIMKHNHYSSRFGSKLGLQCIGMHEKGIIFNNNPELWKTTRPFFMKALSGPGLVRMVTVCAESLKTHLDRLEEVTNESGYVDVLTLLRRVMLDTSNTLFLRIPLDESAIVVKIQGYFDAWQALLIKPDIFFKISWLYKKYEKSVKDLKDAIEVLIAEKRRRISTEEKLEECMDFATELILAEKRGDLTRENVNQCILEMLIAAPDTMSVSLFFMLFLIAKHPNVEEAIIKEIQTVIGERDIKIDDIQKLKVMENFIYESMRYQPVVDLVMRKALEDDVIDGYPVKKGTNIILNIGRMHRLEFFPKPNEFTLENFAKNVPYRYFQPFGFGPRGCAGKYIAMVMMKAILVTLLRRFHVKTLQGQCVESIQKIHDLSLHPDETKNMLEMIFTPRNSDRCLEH
pIC50: −log10 of the molar value.
quantity.name: pIC50

COc1ccc2cc(/C=N/NC3=NC(=O)CS3)ccc2c1: 7.38
CCOC(=O)Cc1csc(N/N=C/c2ccc3cc(OC)ccc3c2)n1: 7.51

---

Molecular target: Amine oxidase [flavin-containing] A (Homo sapiens, UniProt P21397)
Sequence (P21397 whole entry): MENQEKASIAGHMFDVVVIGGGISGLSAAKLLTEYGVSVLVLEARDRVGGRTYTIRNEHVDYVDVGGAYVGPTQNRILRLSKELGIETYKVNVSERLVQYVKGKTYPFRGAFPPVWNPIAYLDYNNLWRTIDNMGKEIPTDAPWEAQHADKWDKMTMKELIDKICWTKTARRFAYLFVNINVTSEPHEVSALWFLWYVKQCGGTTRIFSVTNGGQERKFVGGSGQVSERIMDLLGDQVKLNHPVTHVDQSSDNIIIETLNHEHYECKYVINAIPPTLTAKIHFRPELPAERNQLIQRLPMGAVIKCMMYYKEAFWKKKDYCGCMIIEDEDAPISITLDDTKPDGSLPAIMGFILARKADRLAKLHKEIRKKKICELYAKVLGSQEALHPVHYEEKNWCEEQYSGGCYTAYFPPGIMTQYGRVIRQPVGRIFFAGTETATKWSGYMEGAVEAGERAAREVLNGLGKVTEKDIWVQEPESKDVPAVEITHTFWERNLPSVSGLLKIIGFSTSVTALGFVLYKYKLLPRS
Experiment: Inhibition of MAO-A (unknown origin) at 10 mM relative to control
Design: dose or concentration left out as unconfirmed
quantity.name: inhibition (%)

COc1ccc2cc(/C=N/Nc3nc(C)c(C)s3)ccc2c1: 30.9
COc1ccc2cc(/C=N/Nc3nc(-c4ccc(Cl)c(Cl)c4)cs3)ccc2c1: 32.5
COc1ccc2cc(/C=N/Nc3nc(-c4ccc(-c5ccccc5)cc4)cs3)ccc2c1: 34.2
COc1ccc2cc(/C=N/Nc3nc(-c4ccc5ccccc5c4)cs3)ccc2c1: 35.7
COc1ccc2cc(/C=N/Nc3nc(-c4cccc(Cl)c4)cs3)ccc2c1: 39.9
COc1ccc2cc(/C=N/Nc3nc(-c4cc5ccccc5o4)cs3)ccc2c1: 27.7
COc1cccc(-c2csc(N/N=C/c3ccc4cc(OC)ccc4c3)n2)c1: 21.9
COc1ccc2cc(/C=N/Nc3nc(-c4ccc(F)cc4)cs3)ccc2c1: 35.5
COc1ccc2cc(/C=N/Nc3nc(-c4ccc(C#N)cc4)cs3)ccc2c1: 30.4
CCOC(=O)c1sc(N/N=C/c2ccc3cc(OC)ccc3c2)nc1C: 29.3

---

Target: UniProt:P21397
Sequence (P21397 whole entry): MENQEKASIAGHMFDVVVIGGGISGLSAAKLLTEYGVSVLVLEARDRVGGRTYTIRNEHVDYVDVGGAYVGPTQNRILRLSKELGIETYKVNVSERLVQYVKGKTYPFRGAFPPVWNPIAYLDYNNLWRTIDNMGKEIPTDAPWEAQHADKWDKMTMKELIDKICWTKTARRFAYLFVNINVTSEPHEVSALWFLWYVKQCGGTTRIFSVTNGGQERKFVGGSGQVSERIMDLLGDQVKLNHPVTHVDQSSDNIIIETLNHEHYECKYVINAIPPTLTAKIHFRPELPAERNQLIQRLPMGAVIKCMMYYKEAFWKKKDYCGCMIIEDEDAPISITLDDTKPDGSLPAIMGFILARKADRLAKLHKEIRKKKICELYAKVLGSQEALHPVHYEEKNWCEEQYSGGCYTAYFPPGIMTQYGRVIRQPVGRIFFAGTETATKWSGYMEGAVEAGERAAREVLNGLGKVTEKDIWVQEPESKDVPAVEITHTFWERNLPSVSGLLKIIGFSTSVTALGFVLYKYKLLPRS
Experiment: Inhibition of MAO-A (unknown origin) at 10 mM relative to control
Parameters: dose or concentration left out as unconfirmed
quantity.name: inhibition (%)

Worked examples follow.
COc1ccc2cc(/C=N/Nc3nc(-c4ccc([N+](=O)[O-])cc4)cs3)ccc2c1: 33.4
COc1ccc2cc(/C=N/Nc3nc(-c4ccccc4)cs3)ccc2c1: 26.6
COc1ccc2cc(/C=N/NC3=NC(=O)CS3)ccc2c1: 33.9
COc1ccc2cc(/C=N/Nc3nc(-c4cccc(F)c4)cs3)ccc2c1: 32.1
COc1ccc2cc(/C=N/Nc3nc(-c4ccccc4)c(C)s3)ccc2c1: 82.3

[P] COc1ccc2cc(/C=N/Nc3nc(-c4ccc(S(C)(=O)=O)cc4)cs3)ccc2c1
[Q] COc1ccc2cc(/C=N/Nc3nc(-c4cccc([N+](=O)[O-])c4)cs3)ccc2c1
Task: Could you point out whether the larger inhibition belongs to P or to Q ? Respond using the label that marks the chosen record.
Result: Q
(Q: 84.1%, P: 37%)

---

target: Amine oxidase [flavin-containing] A (Homo sapiens, UniProt P21397); assay: Inhibition of MAO-A (unknown origin) at 1 mM relative to control
quantity.name: inhibition at 1000 µM (%)

Worked examples follow.
COc1cccc(-c2csc(N/N=C/c3ccc4cc(OC)ccc4c3)n2)c1: 56.7
COc1ccc2cc(/C=N/Nc3nc(-c4ccc5ccccc5c4)cs3)ccc2c1: 55.9
CCOC(=O)c1sc(N/N=C/c2ccc3cc(OC)ccc3c2)nc1C: 58.2
COc1ccc2cc(/C=N/Nc3nc(-c4cccc(Cl)c4)cs3)ccc2c1: 48.4
COc1ccc2cc(/C=N/Nc3nc(-c4ccc([N+](=O)[O-])cc4)cs3)ccc2c1: 57.8
COc1ccc2cc(/C=N/Nc3nc(-c4ccc(C#N)cc4)cs3)ccc2c1: 58.7
COc1ccc2cc(/C=N/Nc3nc(-c4ccc(Cl)c(Cl)c4)cs3)ccc2c1: 47.7
COc1ccc2cc(/C=N/Nc3nc(-c4ccc(F)cc4)cs3)ccc2c1: 52.2
CCOC(=O)Cc1csc(N/N=C/c2ccc3cc(OC)ccc3c2)n1: 60.2
COc1ccc2cc(/C=N/Nc3nc(-c4ccccc4)cs3)ccc2c1: 51.4

[1] COc1ccc2cc(/C=N/Nc3nc(-c4ccc(S(C)(=O)=O)cc4)cs3)ccc2c1
[2] COc1ccc2cc(/C=N/Nc3nc(-c4cccc([N+](=O)[O-])c4)cs3)ccc2c1
Task: Looking only at measured inhibition at 1000 µM, which entry is lower, 1 or 2 ? Respond using the label that marks the chosen record.
Result: 1

[P] COc1ccc2cc(/C=N/Nc3nc(-c4ccc(Cl)cc4)cs3)ccc2c1
[Q] COc1ccc2cc(/C=N/Nc3nc(-c4ccccc4)c(C)s3)ccc2c1
Task: Could you point out whether the larger inhibition at 1000 µM belongs to P or to Q ? Respond using the label that marks the chosen record.
Result: Q

---

Biological target: Amine oxidase [flavin-containing] A (Homo sapiens, UniProt P21397)
Sequence (P21397 whole entry): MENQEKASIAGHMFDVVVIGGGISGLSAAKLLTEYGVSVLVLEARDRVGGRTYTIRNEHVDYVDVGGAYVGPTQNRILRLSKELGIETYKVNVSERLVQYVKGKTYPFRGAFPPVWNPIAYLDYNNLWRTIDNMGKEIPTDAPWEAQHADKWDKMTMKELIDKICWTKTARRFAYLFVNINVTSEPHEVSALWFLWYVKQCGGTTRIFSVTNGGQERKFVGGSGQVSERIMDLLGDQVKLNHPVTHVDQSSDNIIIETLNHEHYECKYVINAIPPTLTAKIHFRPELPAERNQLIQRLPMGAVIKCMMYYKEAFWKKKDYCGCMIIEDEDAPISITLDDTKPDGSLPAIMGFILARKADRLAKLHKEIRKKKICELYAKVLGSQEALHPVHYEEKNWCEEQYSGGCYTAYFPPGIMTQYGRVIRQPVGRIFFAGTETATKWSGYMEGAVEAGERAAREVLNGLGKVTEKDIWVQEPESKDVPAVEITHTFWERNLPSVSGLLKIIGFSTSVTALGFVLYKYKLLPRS
Experiment: Inhibition of MAO-A (unknown origin) at 10 mM relative to control
Set-up: dose or concentration left out as unconfirmed
quantity.name: inhibition (%)

CCOC(=O)Cc1csc(N/N=C/c2ccc3cc(OC)ccc3c2)n1: 30.2
COc1ccc2cc(/C=N/Nc3nc(-c4ccc(Cl)cc4)cs3)ccc2c1: 28.8
COc1ccc(-c2csc(N/N=C/c3ccc4cc(OC)ccc4c3)n2)cc1: 28.1
COc1ccc2cc(/C=N/Nc3nc(-c4ccc(C)cc4)cs3)ccc2c1: 31.1

Where do the numbers come from? From ChEMBL document CHEMBL5154692.
